Data provenance is ChEMBL document CHEMBL4007445.

molecular target: Phosphatidylinositol 4,5-bisphosphate 3-kinase catalytic subunit gamma isoform (Homo sapiens); test: Inhibition of human PI3K p120gamma at 10 uM using phosphatidylinositol 4,5-bisphosphate as substrate after 30 mins by HTRF assay relative to control
READOUT: inhibition (%)

Study these solved cases before continuing.
[[record]]
chemical_smiles = "COc1ccc(-c2ccc3c(N4CCOC[C@@H]4C)nc(N4CCOC[C@@H]4C)nc3n2)cc1CO"
value = 29

[[record]]
chemical_smiles = "C[C@H]1COCCN1c1cc(-c2ccc(NC(=O)Nc3cccnc3)cc2)nn2ccnc12"
value = 40


(A) Oc1cccc(-c2nc(N3CCOCC3)c3oc4ncccc4c3n2)c1
(B) C[C@H]1COCCN1c1cc(-c2ccc(NC(=O)Nc3ccncc3)cc2)nn2ccnc12
Q. Choose between A and B : whose measured inhibition value is numerically larger? Record your answer as the label of the chosen record.
A. A
(A: 98%, B: 39%)
